Biological target: T1, recombinant human IL-12 (rhIL-12) (human, UniProt P29459 23-219; P29460 23-328)
T1 chain 1: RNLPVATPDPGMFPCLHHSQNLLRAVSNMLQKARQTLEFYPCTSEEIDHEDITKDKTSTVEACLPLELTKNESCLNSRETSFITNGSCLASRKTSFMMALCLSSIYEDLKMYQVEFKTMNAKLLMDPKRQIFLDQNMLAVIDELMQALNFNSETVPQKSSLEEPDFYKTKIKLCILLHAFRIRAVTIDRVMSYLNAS
T1 chain 2: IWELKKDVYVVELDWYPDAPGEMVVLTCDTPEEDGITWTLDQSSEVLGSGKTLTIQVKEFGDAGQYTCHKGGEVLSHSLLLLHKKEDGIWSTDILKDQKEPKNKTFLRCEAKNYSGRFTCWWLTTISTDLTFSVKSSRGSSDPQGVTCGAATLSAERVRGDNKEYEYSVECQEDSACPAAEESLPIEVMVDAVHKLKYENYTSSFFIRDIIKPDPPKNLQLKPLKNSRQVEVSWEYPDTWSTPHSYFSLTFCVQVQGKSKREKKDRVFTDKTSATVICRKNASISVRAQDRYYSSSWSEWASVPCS
Experiment: BIAcore
VALUE_KIND: koff (s⁻¹)
Kindly answer with a numeric value in s⁻¹, unit omitted.

* HGSHDG [Y61 H102 G] | 0.000692
* HGSHDL [Y61 H102 L] | 0.000956
* HGSHDA [Y61 H102 A] | 0.000382
* HGSHDF [Y61 H102 F] | 0.000318
* HGSHAN [Y61 H101 A] | 0.00106

Entry HGSHDT [Y61 H102 T] , koff reported as 0.000333

Entry HGSHGN [Y61 H101 G] , koff reported as 0.00375

Entry HGSHDW [Y61 H102 W] , koff reported as 0.000235

Entry HGSHDI [Y61 H102 I] , koff reported as 0.000996
